Molecular target: human Nectin-4 (protein used in the SPR affinity measurements) (human) (UniProt Q96NY8)
Sequence (Q96NY8 32-349 limits assumed): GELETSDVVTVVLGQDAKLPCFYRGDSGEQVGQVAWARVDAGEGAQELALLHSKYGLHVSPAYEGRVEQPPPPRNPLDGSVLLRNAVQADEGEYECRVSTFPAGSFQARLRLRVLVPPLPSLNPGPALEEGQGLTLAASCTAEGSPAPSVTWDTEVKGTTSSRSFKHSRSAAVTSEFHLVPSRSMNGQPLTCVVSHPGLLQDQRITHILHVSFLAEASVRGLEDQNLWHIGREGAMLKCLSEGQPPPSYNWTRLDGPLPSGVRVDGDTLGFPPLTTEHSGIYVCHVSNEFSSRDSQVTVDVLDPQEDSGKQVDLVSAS
Test: SPR, human IgG1
Overview of reported Kd across a group of binders:
Answer with a number only, understood to be in µM.

Examples from the recorded data:
H5L2 (antibody, human IgG1, V domains shown, human IgG1 isotype) VH: QVQLVQSGAEVKKPGASVKVSCKASGYIFTSYWMHWVKQRPGQGLEWMGEIDPSDSYTNYNQKFKGRVTMTLDKSTSTTYMELSSLRSEDTAVYYCARGYGNYGDYWGQGTLVTVSS VL: DVVMTQSPLSNPVTPGEPASISCRSSKSLLHSNGITYLYWYLQKPGQSPQLLIYQMSNLASGVPDRFSSSGSGTDFTLKISRVEAEDVGVYYCAQNLELPWTFGGGTKVEIK
0.0238
H3L0 (antibody, human IgG1, V domains shown, human IgG1 isotype) VH: QVQLVQSGAEVKKPGASVKVSCKASGYIFTSYWMHWVRQAPGQGLEWMGEIDPSDSYTNYNQKFKGRVTMTLDKSTSTTYMELSSLRSEDTAVYYCARGYGNYGDYWGQGTLVTVSS VL: DIVMTQSPLSLPVTPGEPASISCRSSKSLLHSNGITYLYWYLQKPGQSPQLLIYQMSNLASGVPDRFSGSGSGTDFTLKISRVEAEDVGVYYCAQNLELPWTFGGGTKVEIK
0.0358
H6L1 (antibody, human IgG1, V domains shown, human IgG1 isotype) VH: QVQLVQSGAEVKKPGASVKVSCKASGYIFTSYWMHWVKQRPGQGLEWIGEIDPSDSYTNYNQKFKGRVTMTLDKSTSTTYMELSSLRSEDTAVYYCARGYGNYGDYWGQGTLVTVSS VL: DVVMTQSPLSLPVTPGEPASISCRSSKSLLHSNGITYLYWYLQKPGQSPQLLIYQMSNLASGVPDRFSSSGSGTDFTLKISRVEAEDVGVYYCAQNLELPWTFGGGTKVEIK
0.0321
H4L3 (antibody, human IgG1, V domains shown, human IgG1 isotype) VH: QVQLVQSGAEVKKPGASVKVSCKASGYIFTSYWMHWVKQAPGQGLEWMGEIDPSDSYTNYNQKFKGRVTMTLDKSTSTTYMELSSLRSEDTAVYYCARGYGNYGDYWGQGTLVTVSS VL: DVVMTQSALSNPVTPGEPASISCRSSKSLLHSNGITYLYWYLQKPGQSPQLLIYQMSNLASGVPDRFSSSGSGTDFTLKISRVEAEDVGVYYCAQNLELPWTFGGGTKVEIK
0.0216

Next item in the queue.
Record H4L2 (antibody, human IgG1, V domains shown, human IgG1 isotype) VH: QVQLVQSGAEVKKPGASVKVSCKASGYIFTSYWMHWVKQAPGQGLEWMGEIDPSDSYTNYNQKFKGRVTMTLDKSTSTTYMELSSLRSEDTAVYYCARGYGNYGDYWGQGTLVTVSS VL: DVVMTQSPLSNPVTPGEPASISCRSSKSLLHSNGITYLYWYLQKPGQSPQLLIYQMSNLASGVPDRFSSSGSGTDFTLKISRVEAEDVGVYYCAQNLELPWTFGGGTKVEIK . Reported Kd: 0.0268
